Test system: human PCSK9 locus
Test: Secreted PCSK9 by ELISA (normalized to total cell count) in Huh7 cells transfected with mRNA and gRNA
Assay type: cell-based
Details: 50 ng mRNA:25 ng gRNA; paired with LTRP5-ADD-ZIM3 mRNA; Huh7 cells; 6 days post-transfection; relative to non-targeting gRNA control
Quantity: Percent reduction in PCSK9 secretion (%)
I only need the number, in %, no unit after it.

[
  {
    "Substance": "GCUCCUGCACAGUCCUCCCC (listed as RNA, chemistry not given here) [spacer 6.161, Exon 1]",
    "Test Target": "human PCSK9 locus",
    "Percent reduction in PCSK9 secretion / %": 64.08
  },
  {
    "Substance": "UUUUACACACCAUGUUCAAG (listed as RNA, chemistry not given here) [spacer 6.129, Promoter]",
    "Test Target": "human PCSK9 locus",
    "Percent reduction in PCSK9 secretion / %": 27.16
  },
  {
    "Substance": "GGAGCAGGGCGCGUGAAGGG (listed as RNA, chemistry not given here) [spacer 6.158, Exon 1]",
    "Test Target": "human PCSK9 locus",
    "Percent reduction in PCSK9 secretion / %": 88.59
  },
  {
    "Substance": "GGAAGGGCUGUCGAUACUGG (listed as RNA, chemistry not given here) [spacer 6.121, Promoter]",
    "Test Target": "human PCSK9 locus",
    "Percent reduction in PCSK9 secretion / %": 65.57
  },
  {
    "Substance": "GGAAAGCUGAGCUUGUGCCU (listed as RNA, chemistry not given here) [spacer 6.135, Promoter]",
    "Test Target": "human PCSK9 locus",
    "Percent reduction in PCSK9 secretion / %": 68.82
  }
]

**Q:** Any idea what Percent reduction in PCSK9 secretion was measured for GAAUUCUAUGGUAGGCACAA (listed as RNA, chemistry not given here) [spacer 6.134, Promoter] ?
**A:** 46.77

**Q:** Any idea what its Percent reduction in PCSK9 secretion is? The substance is GUGCUCGGGUGCUUCGGCCA (listed as RNA, chemistry not given here) [spacer 6.5, Exon 1]
**A:** 18.47

**Q:** Please report the recorded Percent reduction in PCSK9 secretion for GCUGAAACAGAUGGAAUACU (listed as RNA, chemistry not given here) [spacer 6.172, Intron 1] .
**A:** 45.99
